# credit: ChEMBL document CHEMBL2417487

System: Amphibalanus amphitrite
Test: Antifouling activity against barnacle Balanus amphitrite Darwin
Assay type: functional, organism-based
READOUT: IC50 (µM)
The response must be a number in µM with no trailing unit.

Please give the measured IC50 for this compound: "C[C@@H]1CC[C@]2(O)O[C@]13CC(C)(C)CC3=C[C@@]2(C)O" 54

Please give the measured IC50 for this compound: "C[C@@H]1CCC(=O)[C@](C)(O)/C=C2/CC(C)(C)C[C@@H]21" 9.7

Please give the measured IC50 for this compound: CC(=O)CC/C=C(/C)C[C@H]1CC(C)(C)CC1=O [(-)-SINULARONE A] 74
